Biological target: Human M4 (Homo sapiens, UniProt P08173)
Construct: expressed in transfected cells; host or cells: CHO-K1 (ATCC), stably expressing hM4 and Gqi5
Sequence (P08173 whole entry): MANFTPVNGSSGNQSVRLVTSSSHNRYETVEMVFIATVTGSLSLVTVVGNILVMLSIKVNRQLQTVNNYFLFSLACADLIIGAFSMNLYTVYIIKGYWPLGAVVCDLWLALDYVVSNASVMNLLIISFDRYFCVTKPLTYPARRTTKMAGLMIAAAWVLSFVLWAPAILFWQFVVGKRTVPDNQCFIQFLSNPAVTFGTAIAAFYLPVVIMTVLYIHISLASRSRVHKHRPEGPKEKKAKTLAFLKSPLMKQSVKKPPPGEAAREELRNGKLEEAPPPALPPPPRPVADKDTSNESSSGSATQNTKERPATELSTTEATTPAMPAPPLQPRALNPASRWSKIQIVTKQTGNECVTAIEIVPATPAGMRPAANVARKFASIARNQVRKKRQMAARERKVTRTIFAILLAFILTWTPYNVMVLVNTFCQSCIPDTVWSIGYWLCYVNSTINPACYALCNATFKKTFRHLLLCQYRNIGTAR
Experiment: mAChR M4 cell-based functional assay (calcium flux, potentiation of EC20 acetylcholine response in CHO-K1 hM4-Gqi5 cells)
Conditions: CHO-K1; % ACh maximum at 30 μM; human M4
readout kind: Emax at 30 µM (%)
Enter your answer as a number in %; do not include the unit.

compound: Cc1nnc2ccc(C(=O)NC3CN(c4ncc(Cl)cc4F)C3)cc2c1C [Compound 36]
result: 82
--
compound: Cc1cc(C)c2cc(C(=O)NC3CN(c4cc(Cl)nc(Cl)c4)C3)ccc2n1 [Compound 9]
result: 26.1
--
compound: Cc1cc(C)c2cc(C(=O)NC3CN(c4cc(Cl)ncc4Cl)C3)ccc2n1 [Compound 5]
result: 52.5
--
compound: Cc1nnc2ccc(C(=O)NC3CN(c4ccc(Cl)cn4)C3)cc2c1C [Compound 23]
result: 73.4

Give the measured Emax at 30 µM of Cc1nnc2ccc(C(=O)NC3CN(c4ncccc4F)C3)cc2c1C [Compound 34] .
83.4

The reported numbers originate from patent US10934276B2.
